tested on: LOX IMVI; assay: NCI tumour cell line growth inhibition, 48 h
Calls of active or inactive are those of the source. No stated cut-off is given here; in the data, active = GI50 up to about 1.1 µM and inactive = higher.
Parameter call: string, one of 1 (yes) = active, 0 (no) = inactive

Sample answers from the record:
NC1CC=C(COC(=O)C(O)(c2ccccc2)C2CC2)CC1 (stereo not drawn) : 0 (no)
CCC(C)n1c(C)nc2c1C(=O)c1ccccc1C2=O (stereo not drawn) : 0 (no)
O=C1[C@H]2ON(c3ccccc3)C(c3ccc(Cl)cc3Cl)[C@H]2C(=O)N1c1ccc(Cc2ccc(N3C(=O)[C@@H]4ON(c5ccccc5)C(c5ccc(Cl)cc5Cl)[C@@H]4C3=O)cc2)cc1 (stereo partly drawn) : 0 (no)
CC(C)=C1C(=O)c2c(Cl)sc(Cl)c2C1=O : 0 (no)
CCC1(c2c(F)c(F)c(N)c(F)c2F)CCC(=O)NC1=O (stereo not drawn) : 0 (no)

Prompt line: What is the recorded call for this compound in the test? O=C(O)C12CC3CC(C1)C2C=C3P(=O)(O)O (stereo not drawn)
Response line: 0 (no)

Prompt line: Also check C[B@@-]1(c2ccc(C(F)(F)F)cc2)N[C@@H](Cc2ccccc2)C(=O)O1
Response line: 0 (no)

###

system: NCI/ADR-RES; assay: NCI tumour cell line growth inhibition, 48 h
Activity calls are given as the source filed them. Rule as the data show it: active = GI50 up to about 1.1 µM and inactive = higher.
Give one outcome, nothing more. List: 1 (active), -1 (inactive)

Examples from the recorded data:
N/C(=N/c1ccc(O)cc1)S(=O)O : -1
C=C(C)COc1cc(/N=C(/S)OC(C)C)ccc1Cl : -1
CCCCCCCCCC[C@@H](O)[C@@H]1CC[C@@H]([C@@H]2CC[C@@H]([C@@H](O)CCCCCCCCCCC(O)CC3=CC(C)OC3=O)O2)O1 (some centres undefined) : 1
Nc1ncnc2c1ncn2[C@@H]1O[C@H](C(=O)O)[C@@H](O)[C@H]1O : -1
O=C(CC(=O)Nc1cccc(C(=O)O)c1)Nc1cccc(C(=O)O)c1 : -1

Prompt line: Assay result, entry CCOc1cccc(-c2cc(O)c3cc4c(cc3n2)OCO4)c1 — outcome?
Response line: 1

Prompt line: Can you check O=C1/C(=C/c2ccc(F)cc2)CNC/C1=C\c1ccc(F)cc1 next?
Response line: -1

Prompt line: Cool, now CC[C@@H](/C=C\CCC1(C[C@@H](N)CCC=C(C)C)OCCO1)O[Si](C(C)C)(C(C)C)C(C)C
Response line: -1

Prompt line: Same thing, different compound: C1=N\c2ccc(cc2)-c2ccc(cc2)/N=C\c2ccc(cc2)OCc2cccc(n2)COc2ccc/1cc2
Response line: -1

Prompt line: One more compound: O=[N+]([O-])c1cccc(Cl)c1Oc1ccc(S(=O)(=O)N/C(=N\O)Nc2ccc(Cl)cc2)cc1
Response line: -1

###

system: MDA-MB-231; test: NCI tumour cell line growth inhibition, 48 h
Calls of active or inactive are those of the source. Cut-off read from the data, not from the text of the source: active = GI50 up to about 1.1 µM and inactive = higher.
Hi there, use one of these labels in your reply, thanks! 1.0 = active, 0.0 = inactive

O=C(/C=C1\N=C(c2ccccc2)N(c2nc3c(Cl)cc(Cl)cc3s2)C1=O)/C=C/c1ccccc1 : 0.0

Prompt line: Can you look up the reported call for C#C/C=C/CC1OC(C(Br)CC)CC(Br)C2CC1O2 (stereo not drawn) for me?
Response line: 0.0

Prompt line: Can you check CNc1ccc2nc(-c3ccc(OC(=O)N(C)C)cc3)cn2c1 next?
Response line: 0.0

Prompt line: Try COCCN1C(=O)C2c3[nH]c4ccccc4c3C3CCC(C(C)(C)C)CC3C2C1=O (stereo not drawn) next.
Response line: 0.0

Prompt line: Same for C=C1C(=O)OC2/C=C(\C)C3OC3/C=C(/C(=O)OC)C(OC(C)=O)C(OC(=O)C(C)(O)C(C)OC(C)=O)C12 (stereo not drawn)
Response line: 0.0

Prompt line: Now consider C[n+]1cccc(/C=C/c2ccc3cccc(O)c3n2)c1 .
Response line: 0.0

Prompt line: Thanks! And COc1ccc(Cc2cc(OC)c(OC)c(OC)c2)cc1 ?
Response line: 1.0

Prompt line: Entry Cc1cc(C)nc(NS(=O)(=O)c2ccc(NC(=O)c3cccc4c(NNc5ccc(S(=O)(=O)N=C(N)N)cc5)c5ccccc5nc34)cc2)n1 please
Response line: 0.0

Prompt line: Also COc1ccc(C2C3CCc4ccccc4C3=NN2S(=O)(=O)c2ccc(Cl)cc2)cc1 (stereo not drawn) ?
Response line: 0.0

###

test system: A549; assay: NCI tumour cell line growth inhibition, 48 h
Calls of active or inactive are those of the source. Cut-off read from the data, not from the text of the source: active = GI50 up to about 1.1 µM and inactive = higher.
Items are presented alongside their recorded GI50.

CC(=O)NC(C)(C)C1CC=C(C)/C(=N\O)C1 (stereo unspecified) : > 100 µM (inactive)
OCCN1CCN(c2nc(N3CCCC3)c3nc(Cl)c(NCc4ccccc4)nc3n2)CC1 : 6.59 µM (inactive)
C/C(CCN(C)C)=N\OC(=O)c1ccccc1 : > 100 µM (inactive)
Clc1ccc(-c2cc(-c3nc4ccccc4[nH]3)no2)cc1 : 19.1 µM (inactive)
CN(CO)c1nc(N(C)CO)nc(N(C)CO)n1 : 12.8 µM (inactive)
CCCCCCCCCC[C@@H](O)[C@@H]1CC[C@@H]([C@@H]2CC[C@@H]([C@@H](O)CCCCCCCCCCC(O)CC3=CC(C)OC3=O)O2)O1 (stereo partly specified) : 2.53 µM (inactive)
C/C(=N\N=C(/S)N(C)C)c1cccc[n+]1[O-] : 59.7 µM (inactive)
Cc1ccc(/C=C2\CN(C)CC3=C2OC(N)=C(C#N)C3c2ccc(C)cc2)cc1 (stereo unspecified) : 14.4 µM (inactive)

Prompt line: Reported GI50, compound c1ccc2c(c1)NC(C1OC3CCCN3C1C1Nc3ccccc3S1)S2 (stereo unspecified) : ____
Response line: > 100 µM (inactive)

Prompt line: What about OC(Cn1cncn1)(Cn1cncn1)c1ccc(Cl)cc1Cl ?
Response line: > 100 µM (inactive)

Prompt line: How about CCC(C)(O)c1cnc(CC(C)C)c(=O)n1O (stereo unspecified) ?
Response line: 43.9 µM (inactive)

###

tested on: OVCAR-3; assay: NCI tumour cell line growth inhibition, 48 h
Active and inactive are the calls of the source. Rule as the data show it: active = GI50 up to about 1.1 µM and inactive = higher.
measureName: GI50

Answered cases to consult:
C[n+]1cccc(/C=C/c2ccc3cccc(O)c3n2)c1 : 27 µM (inactive)
O=NN1CCNC1Cc1ccccc1 (stereo unspecified) : > 100 µM (inactive)
Cc1nc(N)c(N2CCNCC2)c(O)n1 : 76.7 µM (inactive)
Cc1ccc(/C=C2\CN(C)CC3=C2OC(N)=C(C#N)C3c2ccc(C)cc2)cc1 (stereo unspecified) : 12.1 µM (inactive)
C/C(=N\Nc1nc2ccccc2o1)c1ncccn1 : 0.0136 µM (active)

Prompt line: Please report the recorded GI50 for O=C1OC(=O)C2=C1C(c1cccs1)C=C(c1cccnc1)N2c1ccncc1 (stereo unspecified) .
Response line: 13.4 µM (inactive)

###

Catalogue of GI50 readings, one per entry.
test system: M14; assay: NCI tumour cell line growth inhibition, 48 h
Active and inactive are the calls of the source. Rule as the data show it: active = GI50 up to about 1.1 µM and inactive = higher.

Cc1ccnc2[nH]c(-c3ccccc3)cc(=O)c12 : 0.00658 µM (active)

Prompt line: May I ask what GI50 has been recorded for CN1CCN(CC(=O)N2c3ccccc3Sc3cc4ccccc4cc32)CC1 ?
Response line: 13.8 µM (inactive)

Prompt line: Next record, please: C=CC[C@@]1(C(=O)OC)[C@H](Sc2ccccc2)C1(C)C
Response line: 56.8 µM (inactive)

Prompt line: Now consider O=C1C[C@H]2CC3(CC[C@H]2CN1)OCCO3 .
Response line: > 100 µM (inactive)

Prompt line: Moving on to the next compound: NS(=O)(=O)c1ccc(Nc2c3ccccc3nc3c(C(=O)N4CCN(CCO)CC4)cccc23)cc1
Response line: > 100 µM (inactive)

Prompt line: Same thing, different compound: CNC(=O)CCCNC(=O)CCCC(=O)OC
Response line: > 100 µM (inactive)

Prompt line: Thanks! And CC(=O)OCC1OC(N2C(=O)/C(=C\c3ccc(Cl)cc3)C(N)=Nc3ccccc32)C(OC(C)=O)C(OC(C)=O)C1OC(C)=O (stereo not given) ?
Response line: 20.2 µM (inactive)

Prompt line: Next entry: CC[C@@H](/C=C\CCC1(C[C@@H](N)CCC=C(C)C)OCCO1)O[Si](C(C)C)(C(C)C)C(C)C
Response line: 18.5 µM (inactive)

Prompt line: Lookup O=C1CC2C(=O)c3ccccc3CC2c2ccccc21 (stereo not given)
Response line: 69.5 µM (inactive)

Prompt line: Try this compound too: COCCN1C(=O)C2c3[nH]c4ccccc4c3C3CCC(C(C)(C)C)CC3C2C1=O (stereo not given)
Response line: 18.5 µM (inactive)

###

tested on: Hs-578T; experiment: NCI tumour cell line growth inhibition, 48 h
Activity calls are given as the source filed them. Cut-off read from the data, not from the text of the source: active = GI50 up to about 1.1 µM and inactive = higher.
Reply using exactly one outcome from active, inactive

Worked cases, answers included:
NC1=C(N2CCCCC2)C(=O)NC2=N/C(=C\c3ccco3)C(=O)N21 : inactive
C/C(=N\N=C(/S)N(C)C)c1cccc[n+]1[O-] : inactive

Prompt line: Returns: the outcome recorded for CC(C)(C)c1cc(C(CO)OCCOCCO)cc(C(C)(C)C)c1O (stereo not given) in this assay.
Response line: inactive

Prompt line: Now consider CC(=O)C(=NNc1ccc(-n2c(C)nc3ccccc3c2=O)cc1)C(C)=O and answer again.
Response line: inactive

Prompt line: Now consider O=[N+]([O-])c1cccc(Cl)c1Oc1ccc(S(=O)(=O)N/C(=N\O)Nc2ccc(Cl)cc2)cc1 and answer again.
Response line: inactive

Prompt line: Further, for O=C1CC2C(=O)c3ccccc3CC2c2ccccc21 (stereo not given) ?
Response line: inactive

Prompt line: Input O=C(CC(C(=O)c1ccsc1)c1ccccc1)c1ccccc1 (stereo not given)
Response line: inactive

Prompt line: Input NS(=O)(=O)c1ccc(/N=N/c2c(O)c(C(=O)O)cc3ccccc23)cc1
Response line: inactive

Prompt line: And for CC(=O)[C@]1(O)Cc2c(O)c3c(c(O)c2C(OC2OC(C)C(O)C(O)C2F)C1)C(=O)c1ccccc1C3=O (stereo not given in full) ?
Response line: active

Prompt line: Entry NC(=O)c1c(NC=O)ncn1C1OCC(O)C(O)C1O (stereo not given) please
Response line: inactive

The measurements presented in this section are drawn from ChEMBL document CHEMBL1201862.
